Attribution: patent US20240270821A1

target: hGLP-1R (Homo sapiens); assay: Functional cAMP activation in the presence of 0.1% casein (no HSA); assay type: cell-based; settings: in the presence of 0.1% casein (no HSA); geometric mean; read-out: Relative cAMP EC50, hGLP-1R;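 note: intracellular cAMP rise after 30 min at 37 °C read by HTRF, normalized between buffer only (0%) and maximal control ligand (100%), four-parameter variable-slope fit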
Sequence (P43220 24-463): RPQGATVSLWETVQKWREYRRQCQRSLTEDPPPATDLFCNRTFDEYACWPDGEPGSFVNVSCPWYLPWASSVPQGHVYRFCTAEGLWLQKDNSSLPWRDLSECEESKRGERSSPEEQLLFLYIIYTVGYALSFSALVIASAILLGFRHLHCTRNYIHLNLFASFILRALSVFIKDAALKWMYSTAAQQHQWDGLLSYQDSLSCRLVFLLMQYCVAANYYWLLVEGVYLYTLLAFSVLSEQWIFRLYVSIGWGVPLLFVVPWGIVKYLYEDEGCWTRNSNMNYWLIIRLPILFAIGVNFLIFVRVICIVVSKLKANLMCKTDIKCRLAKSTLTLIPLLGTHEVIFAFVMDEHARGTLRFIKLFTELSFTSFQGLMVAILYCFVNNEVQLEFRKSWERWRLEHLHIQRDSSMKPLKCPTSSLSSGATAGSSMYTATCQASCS
Starred links: 1 amine or outer side, 2 acyl side, 3 side chain; linkers in the order of their positions; H or OH if unused. Non-standard residues stand in square brackets, D forms with d. Groups on a side chain read outwards from the residue. *: point of attachment. C20 diacid = O=C(O)CCCCCCCCCCCCCCCCCCC(=O)*; C18 diacid = O=C(O)CCCCCCCCCCCCCCCCC(=O)*; γGlu = O=C(O)[C@H](CCC(=O)[*:2])N[*:1]; αMe4Pal = C[C@](N)(Cc1ccncc1)C(=O)O; αMeY = C[C@](N)(Cc1ccc(O)cc1)C(=O)O; 4Pal = N[C@@H](Cc1ccncc1)C(=O)O; αMeL = CC(C)C[C@](C)(N)C(=O)O; Orn = NCCC[C@H](N)C(=O)O; AEEA = NCCOCCOCC(=O)O; Aib = CC(C)(N)C(=O)O
measured-property: EC50
Note: state the figure and append the unit.

Examples with answers:
Param item = H-Y[Aib]QGTFTSDFS[Orn][αMeL]LDKK([AEEA-γGlu-C18 diacid])AQ[Aib]AFIEYLLEGGPSSGAPPPEGS-NH2 [Example 130] ; retrieve measured EC50.
4.29 nM

Here is the next substance: H-Y[Aib]QGTFTSDYSI[αMeL]LDKQAAK([AEEA-AEEA-γGlu-C20 diacid])QFVEWLLA[Aib]GPSSGAPPPSEG-NH2 [Example 327]
1.61 nM

Here is the next substance: H-Y[Aib]QGTFTSD[4Pal]S[Orn][αMeL]LD[Orn]K([γGlu-γGlu-C18 diacid])AQ[αMe4Pal]AFIE[αMeY]LIEGGPSSGAPPPSGS-NH2 [Example 1013]
0.449 nM

Here is the next substance: H-Y[Aib]QGTFTSD[4Pal]S[Orn][αMeL]LDKK([γGlu-γGlu-C18 diacid])AQ[αMe4Pal]AFIE[αMe4Pal]LIEGGPSSGAPPPSGSEE-NH2 [Example 958]
9.51 nM

Here is the next substance: H-Y[Aib]QGTFTSD[4Pal]SQ[αMeL]LD[Orn]K([AEEA-γGlu-C18 diacid])AQ[αMe4Pal]AFIE[αMeY]LIA[Aib]GPSSGAPPPSGSEE-NH2 [Example 1110]
0.508 nM

---
Param item = H-Y[Aib]QGTFTSDFS[Orn][αMeL]LDKK([AEEA-γGlu-C18 diacid])AQ[Aib]AFIEYLLEGGPSSGAPPPGGE-NH2 [Example 63] ; retrieve measured EC50.
4.78 nM
